Biological target: T1, human CD3e (T-cell surface glycoprotein CD3 epsilon chain) (human, UniProt P07766 23-207)
T1 construct: Target of the anti-hCD3e antibodies on human PBMC, Jurkat cells and cells expressing human CD3e; on T cells it is part of the CD3/TCR complex; also called hCD3e; CD3e on human PBMC
Assay: flow cytometry, human PBMC, antibody 10 µg/mL, anti-human IgG Fc-Alexa Fluor647 (1:500), anti-hTcRβ-PerCP (1:30)
Exercise: state measured upper left quadrant, percent of cells AF647+ / hTcRβ-PerCP- for each of the binders provided.
A complete answer gives the number and then names the unit.

Consider the binder 1B1-H2K1-IgG1-LALA (antibody, V domains shown, Humanized; human IgG1 with LALA mutations; also called H2K1 (humanized 1B1)) VH: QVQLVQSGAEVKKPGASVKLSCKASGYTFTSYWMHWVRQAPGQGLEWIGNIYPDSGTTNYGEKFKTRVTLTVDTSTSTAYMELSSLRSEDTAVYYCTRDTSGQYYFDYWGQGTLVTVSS VL: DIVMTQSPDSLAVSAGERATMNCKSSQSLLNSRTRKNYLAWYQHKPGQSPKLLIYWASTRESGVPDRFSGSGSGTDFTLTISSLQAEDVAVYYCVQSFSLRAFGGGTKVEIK and give its recorded upper left quadrant, percent of cells AF647+ / hTcRβ-PerCP-.
8.53%

Consider the binder 1B1-H4K3-IgG1-LALA (antibody, V domains shown, Humanized; human IgG1 with LALA mutations; also called H4K3 (humanized 1B1)) VH: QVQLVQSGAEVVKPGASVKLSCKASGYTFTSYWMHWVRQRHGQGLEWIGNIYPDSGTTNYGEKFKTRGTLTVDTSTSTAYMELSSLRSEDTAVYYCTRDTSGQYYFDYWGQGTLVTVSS VL: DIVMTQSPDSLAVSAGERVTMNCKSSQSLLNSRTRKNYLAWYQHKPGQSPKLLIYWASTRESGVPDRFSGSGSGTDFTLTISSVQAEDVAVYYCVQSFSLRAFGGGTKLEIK and give its recorded upper left quadrant, percent of cells AF647+ / hTcRβ-PerCP-.
10.7%

Consider the binder 1B1-H1K3-IgG1-LALA (antibody, V domains shown, Humanized; human IgG1 with LALA mutations; also called H1K3 (humanized 1B1)) VH: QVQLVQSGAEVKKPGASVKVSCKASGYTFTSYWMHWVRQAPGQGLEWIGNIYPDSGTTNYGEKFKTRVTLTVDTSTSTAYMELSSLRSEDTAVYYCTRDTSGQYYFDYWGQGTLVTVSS VL: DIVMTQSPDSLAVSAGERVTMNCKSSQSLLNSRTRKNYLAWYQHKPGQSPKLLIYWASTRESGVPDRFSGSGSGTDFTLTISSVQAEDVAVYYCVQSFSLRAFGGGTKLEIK and give its recorded upper left quadrant, percent of cells AF647+ / hTcRβ-PerCP-.
10.5%

Consider the binder 1B1-H1K2-IgG1-LALA (antibody, V domains shown, Humanized; human IgG1 with LALA mutations; also called H1K2 (humanized 1B1)) VH: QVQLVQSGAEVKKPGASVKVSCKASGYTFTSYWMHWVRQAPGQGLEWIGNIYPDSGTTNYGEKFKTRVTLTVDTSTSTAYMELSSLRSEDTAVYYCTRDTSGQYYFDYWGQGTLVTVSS VL: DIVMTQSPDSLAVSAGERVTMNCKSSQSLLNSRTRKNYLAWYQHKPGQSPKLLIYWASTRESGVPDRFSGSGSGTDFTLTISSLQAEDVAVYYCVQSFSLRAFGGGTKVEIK and give its recorded upper left quadrant, percent of cells AF647+ / hTcRβ-PerCP-.
9.94%
